# MEASURED_TARGET: T1, cynomolgus monkey Protein S (cynomolgus monkey)
# T1 construct: also called cyno Protein S
# MEASUREMENT_DESCRIPTION: BLI Octet; antibody on anti-human Fc probe; Protein S 7.81-500 nM; 4 mM CaCl2
The reader will find reported Kd values listed item by item below.
// units = nM; emit number, no label

BINDER: Antibody 8 (antibody, V domains shown, Same variable regions as Antibody 20) VH: QVQLQESGPGLVKPSETLSLTCAVSGYSISSGYYWGWIRQPPGKGLDWIGSIYYSGSTYYNPSLKSRVTISVDTSKNQISLKLSSVTAADTAVYYCATTYSDIVTGYYNDAFDIWGQGTMVTVSS VL: EIVMTQSPATLSVSPGERATLSCRASQRINSNLAWYQQKPGQAPRLLIYGASTRATGIPARFSGSGSGTEFTLTISSLQSEDFAAYYCQQYDNWPLTFGGGTKVEIK
U: nM
Kd: 1.55

Now, please, on to the next binder.
// query Kd value for entry Antibody 29 (antibody, V domains shown, Same variable regions as Antibody 35) VH: QLQLQESGPGLVKPSETLSLTCTVSGGSITNSNYYWGWIRQPPGKGLEWIGSVYYSGTTYYNPSLKSRVTISVDPSKNQFSLKLSSVTAADTAVYYCVRESESYYYYGSDVWGQGTTVTVSS VL: DIQMTQSPSSLSASVGDRVTITCRASQGINNYLAWFQQKPGKAPKSLIYAASSLQSGVPSKFSGSGSGTDFTLTISSLQPEDFATYYCQQYNSYPRTFGQGTKVEIK
20

Hey, just so you know, these numbers are from patent US20230083243A1.
